target: FIV protease (Feline immunodeficiency virus, UniProt P16088)
recordedEndpoint: IC50 (µM)
Just the number please, in µM, no unit attached.

Requested read-out: IC50. Entry: CC[C@H](C)[C@H](NC(=O)[C@@H]1CCCN1C(=O)C(=O)C(Cc1ccccc1)NC(=O)OCc1ccccc1)C(=O)N[C@@H](CCC(N)=O)C(=O)OC(C)(C)C (mixture of isomers)
25

###

molecular target: HIV-1 protease (Human immunodeficiency virus type 1 group M subtype B, UniProt P03369); construct: HIV PR is a 99 amino acid aspartyl protease which functions as a homodimer; made in house; host or cells: no host: total chemical synthesis; experiment: HIV protease inhibition, fluorogenic peptide substrate cleavage (IC50 and Ki); assay type: biochemical; details: read-out: HIV PR Ki
recordedEndpoint: pKi
Expect pKi as a plain number equal to -log10 of the molar concentration.

[[record]]
compound = "COC[C@@H]1[C@@H](OC)[C@H](OC)[C@H](COC)N1C(=O)C(=O)C(Cc1ccccc1)NC(=O)OCc1ccccc1 (mixture of isomers)"
reportedresult = 4.70

[[record]]
compound = "CC(C)(C)NC(=O)[C@@H]1CCCN1C(=O)C(=O)C(Cc1ccccc1)NC(=O)OCc1ccccc1 (mixture of isomers)"
reportedresult = 6.67

[[record]]
compound = "CC[C@H](C)[C@H](NC(=O)[C@@H]1CCCN1C(=O)C(=O)C(Cc1ccccc1)NC(=O)OCc1ccccc1)C(=O)N[C@@H](CCC(N)=O)C(=O)OC(C)(C)C (mixture of isomers)"
reportedresult = 6.81


From here, focus on the item given below.
Requested read-out: pKi. Entry: COC(=O)[C@@H]1CCCN1C(=O)C(=O)C(Cc1ccccc1)NC(=O)OC(C)(C)C (stereo partly shown)
5.22

Where these numbers come from: patent US6900238B1
